B1: GFOD1 (parent)
chain: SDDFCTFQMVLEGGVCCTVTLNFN

variants of: B1; experiment: protein stability index of a GFP-peptide fusion (GPS, HEK-293T) (PSI 1-6); higher = more stable; settings: c terminus: a fixed tail appended;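 further: lentivirally expressed fusions sorted by FACS into six bins by GFP to DsRed ratio, PSI derived from sequencing read proportions per bin multiplied by bin number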
protein stability index values, listed per item
API note: the answer field is a bare number with no unit suffix.

Use the examples below as a reference point.
> print(dat)
   mutation.key           property.label  measurement
1           F4T  protein stability index         3.91
2          G13N  protein stability index         2.32
3          C16W  protein stability index          2.8
4          C17P  protein stability index         2.66

The recorded protein stability index for entry G13Q equals 3.22

The recorded protein stability index for entry F4H equals 1.87

The recorded protein stability index for entry T6Y equals 1.92

The recorded protein stability index for entry C16E equals 2.24

The recorded protein stability index for entry F23A equals 2.62
